The reported numbers originate from ChEMBL document CHEMBL1159126.

// reported EC50 at 72 h per item
# assay: Toxicity against human HCT8 cells after 72 hrs by XTT assay
# Assay type: cell-based, HCT-8
Give the quantity in µM, number only.

Recall and state the measured EC50 at 72 h for `CCCCCNC(=O)Oc1ccc(Cl)cc1C(=O)Nc1ccc(Cl)c(Cl)c1` .
40

Supply measured EC50 at 72 h of `CCCCCCCNC(=O)Oc1ccc(Cl)cc1C(=O)Nc1ccc(Cl)c(Cl)c1` in your reply.
43.4

Tell me its EC50 at 72 h given `CCCCCCNC(=O)Oc1ccc(Cl)cc1C(=O)Nc1cccc(Cl)c1` as the entry.
14.9

Provide only the value of recorded EC50 at 72 h for `CCCCNC(=O)Oc1ccc(Cl)cc1C(=O)Nc1ccc(Cl)c(Cl)c1`
38

Return reported EC50 at 72 h. Input compound: `CCCCCNC(=O)Oc1ccc(Cl)cc1C(=O)Nc1ccc(Cl)cc1`
17.4

Quickly give me recorded EC50 at 72 h for `CCNC(=O)Oc1ccc(Cl)cc1C(=O)Nc1ccc(Cl)c(Cl)c1`
31

Return the recorded EC50 at 72 h value; entry: `CCCCCCCCNC(=O)Oc1ccc(Cl)cc1C(=O)Nc1ccc(Cl)c(Cl)c1`
48.5

Identify EC50 at 72 h associated with the compound `CCCCCCNC(=O)Oc1ccc(Cl)cc1C(=O)Nc1ccc(Cl)c(Cl)c1`
27.9

---

# Test system: Mycobacterium kansasii
# assay: Antimycobacterial activity against Mycobacterium kansasii 6509/96 after 21 days by micromethod
# Type: functional
# test parameters: 6509/96, 504 h
attribute measured: MIC (µM)
API: value field is a number in µM; no unit string.

{"columns": ["cpd smiles", "measurement target", "MIC [µM]"],
 "data": [
  ["CCCCCCNC(=O)Oc1ccc(Cl)cc1C(=O)Nc1ccc(Cl)cc1", "Mycobacterium kansasii", 4],
  ["CCCCCCCCCCNC(=O)Oc1ccc(Cl)cc1C(=O)Nc1ccc(Cl)cc1", "Mycobacterium kansasii", 8],
  ["CCCCCCCCCNC(=O)Oc1ccc(Cl)cc1C(=O)Nc1ccc(Cl)cc1", "Mycobacterium kansasii", 4],
  ["CCNC(=O)Oc1ccc(Cl)cc1C(=O)Nc1cccc(Cl)c1", "Mycobacterium kansasii", 8]
]}

# ---- query molecule ----
Return MIC for the following molecule: `CCCCCCCCCNC(=O)Oc1ccc(Cl)cc1C(=O)Nc1ccc(Cl)c(Cl)c1`
4

---

# assay: Partition coefficient, log P of the compound
# Type: physicochemical
# test parameters: octanol/water
logP for assorted compounds
Lab note: jot the number down without any unit.

Take a look at these entries with their results.
{"columns": ["cpd smiles", "quantitative result"],
 "data": [
  ["CCCCCNC(=O)Oc1ccc(Cl)cc1C(=O)Nc1cccc(Cl)c1", 5.11],
  ["CCCCCCCCCCNC(=O)Oc1ccc(Cl)cc1C(=O)Nc1ccc(Cl)c(Cl)c1", 7.77],
  ["CCNC(=O)Oc1ccc(Cl)cc1C(=O)Nc1cccc(Cl)c1", 3.79],
  ["CCCCCCCCNC(=O)Oc1ccc(Cl)cc1C(=O)Nc1ccc(Cl)c(Cl)c1", 6.92]
]}

Give me measured logP, please, for this compound: `CCCCCCCCNC(=O)Oc1ccc(Cl)cc1C(=O)Nc1ccc(Cl)cc1`
6.36

Specify reported logP for the compound shown: `CCCCNC(=O)Oc1ccc(Cl)cc1C(=O)Nc1ccc(Cl)cc1`
4.69

Supply logP value. Item: `CCCCCCCCCNC(=O)Oc1ccc(Cl)cc1C(=O)Nc1ccc(Cl)c(Cl)c1`
7.34

Tell us which logP value is on record for `CCNC(=O)Oc1ccc(Cl)cc1C(=O)Nc1ccc(Cl)c(Cl)c1`
4.35

For the compound `CCNC(=O)Oc1ccc(Cl)cc1C(=O)Nc1ccc(Cl)cc1` , report logP.
3.79
